# conditionLabel: in 2-(2-methoxypropoxy) propanol, 308.15 K
propertyMeasured: solubility (mole fraction)

{"columns": ["chemicalStructure", "solubility (mole fraction)"],
 "data": [
  ["O=P(Oc1ccccc1)(Oc1ccccc1)N1CCN(P(=O)(Oc2ccccc2)Oc2ccccc2)CC1", 0.00167]
]}

Attention now shifts to the item below.
# solubility (mole fraction) of O=P(NCc1cccc(CNP(=O)(Oc2ccccc2)Oc2ccccc2)c1)(Oc1ccccc1)Oc1ccccc1 = 0.00487

====

Could you please report measured solubility (mole fraction) for the items listed next?
# conditionLabel: in 2-(2-methoxypropoxy) propanol, 298.15 K
Give bare numbers.

{"columns": ["chemicalStructure", "solubility (mole fraction)"],
 "data": [
  ["O=P(NCc1cccc(CNP(=O)(Oc2ccccc2)Oc2ccccc2)c1)(Oc1ccccc1)Oc1ccccc1", 0.00331]
]}

Attention now shifts to the item below.
# solubility (mole fraction) of O=P(Oc1ccccc1)(Oc1ccccc1)N1CCN(P(=O)(Oc2ccccc2)Oc2ccccc2)CC1 = 0.00117

====

# conditionLabel: in 1-methoxy-2-propanol, 328.15 K
Could you please report measured solubility (mole fraction) for the items listed next?
Answers are plain numbers.

{"columns": ["chemicalStructure", "solubility (mole fraction)"],
 "data": [
  ["O=P(Oc1ccccc1)(Oc1ccccc1)N1CCN(P(=O)(Oc2ccccc2)Oc2ccccc2)CC1", 0.00215]
]}

Attention now shifts to the item below.
# solubility (mole fraction) of O=P(NCc1cccc(CNP(=O)(Oc2ccccc2)Oc2ccccc2)c1)(Oc1ccccc1)Oc1ccccc1 = 0.00255

Recorded values, source BigSolDB 2.1.
